- SYSTEM_UNDER_TEST: T1, LEDGF/p75 IBD (Homo sapiens, UniProt O75475)
- T1 chain: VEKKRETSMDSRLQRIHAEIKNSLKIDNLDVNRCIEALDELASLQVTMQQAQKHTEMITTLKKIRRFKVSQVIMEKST
- PROTOCOL_NOTES: NMR
pKd: −log10 of the molar value.

| BINDER | pKd |
| --- | --- |
| GTNLRRFRAVFGESGGGGGSGEDEQFLGFGSDEEVRVR [MLL 123-160] | 4.19 |
